molecular target: kinases (Homo sapiens, UniProt P00519, T315I); construct: purchased Eurofins/DiscoveRx; host or cells: E. coli BL21-derived host (T7 phage display) for most kinases; HEK-293 for the rest; test: KINOMEscan kinase binding assay (Eurofins/DiscoveRx), % Ctrl; conditions: 1 μM; ABL1(T315I)-phosphorylated
The entries below come with measured % Ctrl, ABL1(T315I)-phosphorylated values attached.
REPORTED_METRIC: % Ctrl, ABL1(T315I)-phosphorylated

1. Cc1cc2c([nH]1)/C=C1\C(=O)Nc3ccc(cc31)-c1cnn(C)c1CNCCN(C)C2=O ... 0.1 % Ctrl
2. Cc1cc2c([nH]1)/C=C1\C(=O)Nc3ccc(cc31)-c1ccnn1CCOCCNC2=O ... 26 % Ctrl
3. Cc1cc2c([nH]1)/C=C1\C(=O)Nc3cnc(cc31)-c1cnn(C)c1COCCNC2=O ... 100 % Ctrl
4. Cc1cc2c([nH]1)/C=C1\C(=O)Nc3ccc(cc31)-c1ccnn1CCOCCN(C)C2=O ... 19 % Ctrl
5. Cc1cc2c([nH]1)/C=C1\C(=O)Nc3ccc(cc31)CN(C)C(=O)COCCNC2=O ... 64 % Ctrl

* * *

The entries below come with measured % Ctrl, FLT3 values attached.
Biological target: kinases (Homo sapiens)
Construct: purchased Eurofins/DiscoveRx; host or cells: E. coli BL21-derived host (T7 phage display) for most kinases; HEK-293 for the rest
Assay: KINOMEscan kinase binding assay (Eurofins/DiscoveRx), % Ctrl
Conditions: 1 μM; FLT3
Experimental: Kinase binding assays were performed at Eurofins/DiscoveRx using the general KINOMEscan Protocol (Fabian, M. A. et al., “A small molecule-kinase interaction map for clinical kinase inhibitors,” Nat. Biotechnol. 2005, 23(3):329-36). For most assays, kinase-tagged T7 phage strains were prepared in an E. coli host derived from the BL21 strain. […] The kinase concentration in the eluates was measured by qPCR. […]
REPORTED_METRIC: % Ctrl, FLT3 (% Ctrl)

1. Cc1cc2c([nH]1)/C=C1\C(=O)Nc3cc(Cl)c(cc31)OCCO[C@@H](C(=O)NC1CNC1)CN(C)C2=O [Ex. 133] ... 48
2. Cc1cc2c([nH]1)/C=C1\C(=O)Nc3ccc(cc31)O[C@@H](C)COCCN(C)C2=O [Ex. 92] ... 77
3. Cc1cc2c([nH]1)/C=C1\C(=O)Nc3ccc(cc31)OCCOCCN(C)C2=O [Ex.91] ... 11
4. Cc1cc2c([nH]1)/C=C1\C(=O)Nc3ccc(cc31)CN(C)C(=O)COCCNC2=O [Ex.111] ... 45

* * *

molecular target: kinases (Homo sapiens, UniProt P10721, D816V); construct: purchased Eurofins/DiscoveRx; host or cells: E. coli BL21-derived host (T7 phage display) for most kinases; HEK-293 for the rest; assay: KINOMEscan kinase binding assay (Eurofins/DiscoveRx), % Ctrl; details: 1 μM; KIT(D816V)
Sequence (P10721 26-976 D816V): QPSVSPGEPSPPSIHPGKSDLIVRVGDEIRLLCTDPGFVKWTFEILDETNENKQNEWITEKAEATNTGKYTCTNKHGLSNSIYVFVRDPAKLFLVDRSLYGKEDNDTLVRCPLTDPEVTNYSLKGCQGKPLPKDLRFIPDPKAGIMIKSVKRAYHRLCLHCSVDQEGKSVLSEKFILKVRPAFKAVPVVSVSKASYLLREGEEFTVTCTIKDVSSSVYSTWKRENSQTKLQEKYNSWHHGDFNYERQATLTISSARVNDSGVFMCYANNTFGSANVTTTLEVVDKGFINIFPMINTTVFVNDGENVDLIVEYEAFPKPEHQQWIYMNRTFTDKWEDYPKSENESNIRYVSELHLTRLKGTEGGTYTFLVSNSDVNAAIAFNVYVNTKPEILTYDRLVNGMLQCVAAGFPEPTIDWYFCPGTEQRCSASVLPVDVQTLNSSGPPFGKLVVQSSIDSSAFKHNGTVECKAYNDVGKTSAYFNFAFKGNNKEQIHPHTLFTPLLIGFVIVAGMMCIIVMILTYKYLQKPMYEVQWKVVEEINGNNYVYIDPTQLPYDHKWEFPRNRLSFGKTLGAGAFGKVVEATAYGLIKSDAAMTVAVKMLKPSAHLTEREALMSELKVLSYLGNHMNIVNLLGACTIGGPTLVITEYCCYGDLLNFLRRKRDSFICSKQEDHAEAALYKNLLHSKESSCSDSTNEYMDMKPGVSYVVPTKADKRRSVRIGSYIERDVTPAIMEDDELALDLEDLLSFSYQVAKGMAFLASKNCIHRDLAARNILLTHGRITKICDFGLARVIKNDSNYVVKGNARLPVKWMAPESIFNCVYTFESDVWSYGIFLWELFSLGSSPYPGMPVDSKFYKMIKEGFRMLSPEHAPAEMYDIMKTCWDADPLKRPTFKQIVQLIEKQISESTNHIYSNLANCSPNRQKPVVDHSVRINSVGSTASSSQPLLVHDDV
The entries below come with measured % Ctrl, KIT(D816V) values attached.
REPORTED_METRIC: % Ctrl, KIT(D816V) (% Ctrl)

1) CNC(=O)[C@H]1CN(C)C(=O)c2cc(C)[nH]c2/C=C2\C(=O)Nc3cc(Cl)c(cc32)OCCO1 ... 76
2) Cc1cc2c([nH]1)/C=C1\C(=O)Nc3ccc(cc31)-c1cnn(C)c1COCCN(C)C2=O ... 0.7
3) Cc1cc2c([nH]1)/C=C1\C(=O)Nc3cc(Cl)c(cc31)OCCO[C@@H](C(=O)N[C@@H]1CCNC1)CN(C)C2=O ... 36
4) Cc1cc2c([nH]1)/C=C1\C(=O)Nc3cc(Cl)c(cc31)OCCO[C@@H](C(=O)NC1CNC1)CN(C)C2=O ... 34
5) Cc1cc2c([nH]1)/C=C1\C(=O)Nc3cnc(nc31)N(C)CCCOCCN(C)C2=O ... 100
6) Cc1cc2c([nH]1)/C=C1\C(=O)Nc3cc(Cl)c(cc31)OCCO[C@@H](C(=O)NC1CCNCC1)CN(C)C2=O ... 56
7) Cc1cc2c([nH]1)/C=C1\C(=O)Nc3ccc(cc31)OCCOCCNC2=O ... 93

* * *

The entries below come with measured % Ctrl, ABL1(M351T)-phosphorylated values attached.
molecular target: kinases (Homo sapiens, UniProt P00519, M351T); construct: purchased Eurofins/DiscoveRx; host or cells: E. coli BL21-derived host (T7 phage display) for most kinases; HEK-293 for the rest; test: KINOMEscan kinase binding assay (Eurofins/DiscoveRx), % Ctrl; conditions: 1 μM; target ABL1(M351T)-phosphorylated
REPORTED_METRIC: % Ctrl, ABL1(M351T)-phosphorylated (% Ctrl)

1) Cc1cc2c([nH]1)/C=C1\C(=O)Nc3cc(Cl)c(cc31)SCCOCCN(C)C2=O ... 0.1
2) Cc1cc2c([nH]1)/C=C1\C(=O)Nc3ccc(cc31)-c1c(noc1C(C)C)COCCN(C)C2=O ... 81
3) Cc1cc2c([nH]1)/C=C1\C(=O)Nc3ccc(cc31)-c1cnn(C)c1OCCCN(C)C2=O ... 3.1
4) CN1CCOc2cc3c(cc2Cl)NC(=O)/C3=C\c2[nH]ccc2C(=O)N(C)CC1 ... 0.3
5) Cc1cc2c([nH]1)/C=C1\C(=O)Nc3cnc(cc31)-c1cnn(C)c1CN(C)CCN(C)C2=O ... 0.4

* * *

molecular target: kinases (Homo sapiens, UniProt P00519, Q252H); construct: purchased Eurofins/DiscoveRx; host or cells: E. coli BL21-derived host (T7 phage display) for most kinases; HEK-293 for the rest; test: KINOMEscan kinase binding assay (Eurofins/DiscoveRx), % Ctrl; conditions: 1 μM; target ABL1(Q252H)-phosphorylated
The entries below come with measured % Ctrl, ABL1(Q252H)-phosphorylated values attached.
REPORTED_METRIC: % Ctrl, ABL1(Q252H)-phosphorylated (% Ctrl)

1) Cc1cc2c([nH]1)/C=C1\C(=O)Nc3ccc(cc31)-c1c(noc1C(C)C)COCCN(C)C2=O ... 79
2) Cc1cc2c([nH]1)/C=C1\C(=O)Nc3cc(Cl)c(cc31)SCCOCCN(C)C2=O ... 0.3
3) Cc1cc2c([nH]1)/C=C1\C(=O)Nc3ccc(cc31)-c1cnn(C)c1OCCCN(C)C2=O ... 3.8
4) CN1CCOc2cc3c(cc2Cl)NC(=O)/C3=C\c2[nH]ccc2C(=O)N(C)CC1 ... 0
5) Cc1cc2c([nH]1)/C=C1\C(=O)Nc3cnc(cc31)-c1cnn(C)c1CN(C)CCN(C)C2=O ... 0.1

* * *

system: kinases; experiment: KINOMEscan kinase binding assay (Eurofins/DiscoveRx), % Ctrl; conditions: target FLT3(ITD, F691L); 1 μM
REPORTED_METRIC: % Ctrl, FLT3(ITD, F691L) (% Ctrl)

1) Cc1cc2c([nH]1)/C=C1\C(=O)Nc3ccc(cc31)-c1c(C)nn(C)c1COCCN(C)C2=O [Ex. 146] ... 3.2
2) Cc1cc2c([nH]1)/C=C1\C(=O)Nc3ccc(cc31)-c1c(noc1C)CNCCN(C)C2=O [Ex. 139] ... 0.9
3) CN1CCOCCOc2cc3c(cc2Cl)NC(=O)/C3=C\c2[nH]ccc2C1=O [Ex. 143] ... 1
4) CN1CCSCCOc2cc3c(cc2Cl)NC(=O)/C3=C\c2[nH]ccc2C1=O [Ex. 153] ... 0.5

* * *

biological target: kinases (Homo sapiens, UniProt P09619); construct: purchased Eurofins/DiscoveRx; host or cells: E. coli BL21-derived host (T7 phage display) for most kinases; HEK-293 for the rest; test: KINOMEscan kinase binding assay (Eurofins/DiscoveRx), % Ctrl; conditions: 1 μM; PDGFRB
Sequence (P09619 33-1106): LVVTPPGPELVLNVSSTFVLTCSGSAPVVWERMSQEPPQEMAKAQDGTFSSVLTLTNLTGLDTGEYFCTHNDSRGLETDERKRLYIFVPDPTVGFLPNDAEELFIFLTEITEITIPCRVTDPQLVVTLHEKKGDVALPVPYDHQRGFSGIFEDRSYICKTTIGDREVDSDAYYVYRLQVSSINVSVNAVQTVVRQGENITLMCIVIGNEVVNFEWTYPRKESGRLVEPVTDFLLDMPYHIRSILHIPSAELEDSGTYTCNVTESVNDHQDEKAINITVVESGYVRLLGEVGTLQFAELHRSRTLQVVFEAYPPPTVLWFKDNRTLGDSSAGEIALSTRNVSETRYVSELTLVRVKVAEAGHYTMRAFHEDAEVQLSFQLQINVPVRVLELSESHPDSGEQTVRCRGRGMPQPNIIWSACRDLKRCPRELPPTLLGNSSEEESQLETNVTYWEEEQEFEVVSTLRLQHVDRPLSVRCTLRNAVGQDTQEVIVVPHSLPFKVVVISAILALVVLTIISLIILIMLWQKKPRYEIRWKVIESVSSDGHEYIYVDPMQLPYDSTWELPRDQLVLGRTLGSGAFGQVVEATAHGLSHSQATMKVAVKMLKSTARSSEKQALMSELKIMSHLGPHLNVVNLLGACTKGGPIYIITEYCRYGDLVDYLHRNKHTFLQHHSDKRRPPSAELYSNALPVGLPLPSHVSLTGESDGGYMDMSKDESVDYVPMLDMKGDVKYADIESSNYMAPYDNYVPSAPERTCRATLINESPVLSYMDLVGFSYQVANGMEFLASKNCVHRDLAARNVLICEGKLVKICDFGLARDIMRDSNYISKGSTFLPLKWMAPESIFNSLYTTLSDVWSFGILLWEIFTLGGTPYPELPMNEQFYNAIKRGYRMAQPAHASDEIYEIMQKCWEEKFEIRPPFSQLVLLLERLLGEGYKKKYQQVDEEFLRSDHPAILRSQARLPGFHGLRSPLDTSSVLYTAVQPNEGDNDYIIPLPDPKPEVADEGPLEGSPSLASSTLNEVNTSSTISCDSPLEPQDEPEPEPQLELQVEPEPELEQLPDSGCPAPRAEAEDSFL
REPORTED_METRIC: % Ctrl, PDGFRB (% Ctrl)

1) Cc1cc2c([nH]1)/C=C1\C(=O)Nc3cnc(cc31)-c1cnn(C)c1COCCNC2=O ... 94
2) Cc1cc2c([nH]1)/C=C1\C(=O)Nc3cc(Cl)c(cc31)OCCO[C@@H](C(=O)NC1CCNCC1)CN(C)C2=O ... 66
3) Cc1cc2c([nH]1)/C=C1\C(=O)Nc3cnc(nc31)N(C)CCCOCCN(C)C2=O ... 98
4) Cc1cc2c([nH]1)/C=C1\C(=O)Nc3cc(Cl)c(cc31)OCCO[C@@H](C(=O)N(C)C)CN(C)C2=O ... 90

* * *

target: kinases (Homo sapiens); construct: purchased Eurofins/DiscoveRx; host or cells: E. coli BL21-derived host (T7 phage display) for most kinases; HEK-293 for the rest; assay: KINOMEscan kinase binding assay (Eurofins/DiscoveRx), % Ctrl; conditions: target FLT1; 1 μM
The entries below come with measured % Ctrl, FLT1 values attached.
REPORTED_METRIC: % Ctrl, FLT1 (% Ctrl)

1) CN1CCSCCOc2cc3c(cc2Cl)NC(=O)/C3=C\c2[nH]ccc2C1=O ... 3.5
2) Cc1cc2c([nH]1)/C=C1\C(=O)Nc3cc(Cl)c(cc31)OCCO[C@@H](C(=O)N1CCN(C)CC1)CN(C)C2=O ... 96
3) CN1CCOCCOc2cc3c(cc2Cl)NC(=O)/C3=C\c2[nH]ccc2C1=O ... 11
4) Cc1nn(C)c2c1-c1ccc3c(c1)/C(=C/c1[nH]ccc1C(=O)N(C)CCCO2)C(=O)N3 ... 100
5) Cc1cc2c([nH]1)/C=C1\C(=O)Nc3ccc(cc31)-c1c(C)nn(C)c1COCCN(C)C2=O ... 100
6) Cc1cc2c([nH]1)/C=C1\C(=O)Nc3cnc(cc31)-c1cn[nH]c1CNCCN(C)C2=O ... 62
7) Cc1cc2c([nH]1)/C=C1\C(=O)Nc3ccc(cc31)-c1c(noc1C)CNCCN(C)C2=O ... 65
